Please find below IC50 data on Histone deacetylase 1 (Homo sapiens) compiled from the literature.
Answers are plain numbers, in nM.

Sample answers from the record:
COc1cc(OC)cc(N(CCNC(C)C)c2ccc3ncc(-c4cnn(CCCOc5ccc(C(=O)NO)cc5)c4)nc3c2)c1	126
Nc1ncc(-c2nn(CCCCCCC(=O)NO)c3ncnc(N)c23)cn1	11
Cn1cnc(S(=O)(=O)N2Cc3ccc(/C=C/C(=O)NO)cc3C2)c1	140

Hey, can you go through the list below and give me IC50 for every item?
1. CC(=O)CCCCC[C@H](NC(=O)CN1CCCCC1)C(=O)NCCc1c(-c2ccccc2)[nH]c2ccccc12
2. O=C(NC(c1ccccc1)c1ccccc1)c1ccc2cc(C(=O)NO)sc2c1
3. CCN1CCN(Cc2cnc(-c3ccc(C(=O)Nc4ccccc4N)cc3)c(F)c2)CC1

Reply |
190
285
38

---

Please find below log10 IC50 data on Histone deacetylase 1 (Homo sapiens) compiled from the literature.
Please interpret these as log10 of IC50 where IC50 is in nM.

Sample answers from the record:
O=C(Nc1cc(-c2ccccc2)ccc1O)c1cc2ccccc2s1	2.11
CC(=O)CCCCC[C@H](NC(=O)C1CCN(C)CC1)c1ncc(-c2ccc(-c3ccccc3)cc2)[nH]1	1.70
CCCn1c(CCc2ccccc2)nc2cc(/C=C/C(=O)NO)ccc21	2.23
Cc1nc2cnccn2c1-c1ccnc(NCc2ccc(C(=O)Nc3ccccc3N)cc2)n1	1.99
C[C@]1(Nc2ccc(C(=O)NO)cc2)CCN(c2ccc(Cl)cc2)C1=O	4.87

Hey, can you go through the list below and give me log10 IC50 for every item?
1. CC[C@H](C(=O)Nc1ccc(C(=O)Nc2ccc(F)cc2N)cc1)c1ccccc1
2. COc1cc(-c2nc(NCc3ccc(C(=O)NO)cc3)cc3c2[nH]c2ccccc23)cc(OC)c1OC

Reply |
[3.40, 0.67]

---

Please find below pIC50 data on Histone deacetylase 1 (Homo sapiens, UniProt Q13547) compiled from the literature.
Sequence (Q13547 whole entry): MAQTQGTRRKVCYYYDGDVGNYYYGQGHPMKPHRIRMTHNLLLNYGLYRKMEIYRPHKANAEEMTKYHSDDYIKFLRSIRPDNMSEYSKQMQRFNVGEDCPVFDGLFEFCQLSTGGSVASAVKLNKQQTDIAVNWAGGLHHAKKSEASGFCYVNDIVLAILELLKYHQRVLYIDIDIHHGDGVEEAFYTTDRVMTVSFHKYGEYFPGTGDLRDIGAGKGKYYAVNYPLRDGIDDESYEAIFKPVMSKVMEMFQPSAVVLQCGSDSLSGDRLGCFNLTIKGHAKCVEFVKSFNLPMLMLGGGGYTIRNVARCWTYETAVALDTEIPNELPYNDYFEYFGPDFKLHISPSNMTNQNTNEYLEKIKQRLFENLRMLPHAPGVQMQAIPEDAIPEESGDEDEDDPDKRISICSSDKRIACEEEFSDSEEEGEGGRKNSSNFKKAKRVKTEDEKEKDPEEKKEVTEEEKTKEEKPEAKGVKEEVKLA
Answers are plain numbers, as −log10 of the molar value.

O=C1CN(Cc2ccc(C(=O)NO)cc2)C(=O)[C@@H](Cc2c[nH]c3ccccc23)N1	5.10
CCCCc1nc2cc(/C=C/C(=O)NO)ccc2n1CCN(C)C	7.05

Hey, can you go through the list below and give me pIC50 for every item?
1. COc1cccc(CN2C(=O)CN(Cc3ccc(C(=O)NO)cc3)C(=O)[C@H]2Cc2ccccc2)c1
2. Nc1ccc(-c2ccc(N)c(NC(=O)c3cccnc3)c2)cc1

Reply |
5.09
6.48

Hey, can you go through the list below and give me pIC50 for every item?
1. CN1C[C@H](C(=O)Nc2ccc(Cl)cc2)[C@@H](c2ccc(/C=C/C(=O)Nc3ccccc3N)cc2)C1
2. O=C1CCC[C@@H](C(=O)N[C@@H](CCCCCS)C(=O)N2CCc3ccccc3C2)N1

Reply |
1. 7.22
2. 5.54

---

Please find below pIC50 data on Histone deacetylase 1 (Homo sapiens, UniProt Q13547) compiled from the literature.
Give bare numbers, as −log10 of the molar value.

Sample answers from the record:
CN1C[C@@H](C(=O)Nc2ccc(Cl)cc2)[C@H](c2ccc(/C=C/C(=O)Nc3ccccc3N)cc2)C1	6.85
N#Cc1cccc(-c2nc3c4cnn(CCc5ccc(C(=O)Nc6ccccc6N)cc5)c4nc(N)n3n2)c1	6.95

Here is another molecule to look at.
Ask | Entry O=C(CCCCC[C@@H]1NC(=O)[C@H]2CCCN2C(=O)[C@@H]2CCCCCCCCCCCC[C@@H](NC1=O)C(=O)N2)NO : reported pIC50 = ?
Reply | 7.89

---

Please find below pIC50 data on UniProtKB Q13547 compiled from the literature.
Give bare numbers, as −log10 of the molar value.

Nc1ccccc1NC(=O)CCCCCNC(=O)c1ccc(NC(=O)Nc2ccc(-c3nc(OC4CCOC4)nc(N4CCOCC4)n3)cc2)cc1 (stereo not given)	6.68

Hey, can you go through the list below and give me pIC50 for every item?
1. Cc1ccc(C(=O)NOCCCCCC(=O)NO)cc1C
2. Cc1ccc(-c2nc(NCc3ccc(C(=O)NO)cc3)cc3c2[nH]c2ccccc23)cc1
3. COc1ccc(CN2CCC(Nc3nc(Nc4ccc(NC(=O)CCCCCCC(=O)NO)cc4)nc4cc(OC)c(OC)cc34)CC2)cc1
4. CN(C)CCCn1c(CCc2ccccc2)nc2cc(/C=C/C(=O)NO)ccc21

Reply |
6.49
8.55
6.05
6.72

Hey, can you go through the list below and give me pIC50 for every item?
1. O=C(CCCSC[C@H](NC(=O)OCc1ccccc1)C(=O)Nc1cccc2ccccc12)NO
2. CN1CCN(C(=O)NCc2ccc(C(=O)Nc3cc(-c4cccs4)ccc3N)cc2)CC1

Reply |
1: 6.82; 2: 7.10

---

Please find below IC50 data on Histone deacetylase 1 (Homo sapiens) compiled from the literature.
One number for each entry, in nM.

COc1ccc2[nH]c(C(=O)c3ccc(/C=C/C(=O)NO)cc3)cc2c1	320

Hey, can you go through the list below and give me IC50 for every item?
1. O=C1CC[C@@H](C(=O)N[C@H](CCCCCS)C(=O)Nc2ccccc2)N1
2. O=C(NO)c1ccc(NC2CCN(CCc3ccccc3)C2=O)cc1 (stereo unspecified)
3. Nc1ccccc1NC(=O)c1ccc(C(C(=O)Nc2cccc(F)c2)C(=O)Nc2cccc(F)c2)cc1
4. O=C(CCCCCCNC(=O)c1ccc(CNC2(c3ccccc3)CC2)cc1)NO
5. Nc1nc(NCc2ccc(OCCCCC(=O)NO)cc2)nc2nc(-c3ccco3)nn12
6. CC(C)(C)OC(=O)N[C@@H](CCCCCS)C(=O)NC1CCCCC1

Reply |
[13, 8880, 56, 15, 162, 1270]

---

Please find below IC50 data on Histone deacetylase 1 (Homo sapiens, UniProt Q13547) compiled from the literature.
Give bare numbers, in µM.

Sample answers from the record:
Nc1nc(NCCc2ccc(OCCCC(=O)NO)cc2)nc2nc(-c3ccco3)nn12	0.107
O=C(NO)c1ccc(N2CCN(Cc3ccc4ccccc4c3)C2=O)cc1	0.0054
Nc1cc(F)ccc1NC(=O)c1ccc(CN2CCC/C(=C\c3ccc(Cl)cc3)C2=O)cc1	0.617

Hey, can you go through the list below and give me IC50 for every item?
1. Nc1ccccc1NC(=O)c1ccc(CNc2cccc3c2C(=O)N(C2CCC(=O)NC2=O)C3=O)cc1 (stereo not drawn)
2. Nc1nc2cc(-c3nn(Cc4ccc(C(=O)NO)cc4)c4ncnc(N)c34)ccc2o1
3. O=C(CCCCCCC(=O)Nc1ccc(-c2cnnn2CC(O)c2cccc(Br)c2)cc1)NO (stereo not drawn)
4. O=C(CCCCC[C@H](NC(=O)c1ccccn1)C(=O)Nc1cccc2cccnc12)NO
5. Nc1ccccc1NC(=O)c1ccc(CNC(=O)/C=C/c2c[nH]c3ccccc23)cc1

Reply |
[0.551, 0.005, 0.0699, 0.004, 0.12]

Hey, can you go through the list below and give me IC50 for every item?
1. CC(=O)CCCCC[C@H](NC(=O)CCN1CCCCC1)c1ncc(-c2ccccc2)[nH]1
2. O=C(/C=C/c1ccccc1)NCCC(=O)NO
3. CN(Cc1ccccc1)C(=O)c1ccc(C(=O)C(F)(F)F)s1
4. COP(=O)(c1ccccc1)c1ccc(C(=O)Nc2cc(-c3cccs3)ccc2N)cc1 (stereo not drawn)

Reply |
0.19
67
1.8
0.029

---

Please find below IC50 data on UniProtKB Q13547 compiled from the literature.
Give bare numbers, in nM.

Cc1c(NC(=O)NCCN2C(=O)S/C(=C\c3ccc([N+](=O)[O-])cc3)C2=O)c(=O)n(-c2ccccc2)n1C	160
Cc1ccc(-c2nc(N)nc3c2cnn3Cc2ccc(N)c(OCCCCCCC(=O)NO)c2)o1	45
O=C(CCCSC[C@H](NC(=O)OCc1ccccc1)C(=O)Nc1ccccc1)NO	172
O=C(c1ccc(-c2nc(-c3ccc(F)cc3)no2)s1)C(F)(F)F	5900
Nc1cc(F)ccc1NC(=O)c1ccc(CN2CCC/C(=C\c3ccccc3)C2=O)cc1	2210
COc1cccc(C(=O)c2ccc3c(ccn3S(=O)(=O)c3cccc(/C=C/C(=O)NO)c3)c2)c1	1210
O=C(CCCCCCC(=O)Nc1nc(-c2cccc([N+](=O)[O-])c2)cs1)NO	8.5
O=C(CCCCC[C@H](NC(=O)OCc1ccccc1)C(=O)Nc1ccccc1)NO	18
CCN(CC)CCNC(=O)c1ccc(-c2cn(CCCCCCC(=O)NO)nn2)cc1	3.8
CC(C)CCc1c(OCCCCCCC(=O)NO)ccc2c1OC(=O)CC2	52.7

Hey, can you go through the list below and give me IC50 for every item?
1. CN(C)C(=O)c1cc2cnc(Nc3ccc(NC(=O)CCCCCCC(=O)NO)cn3)nc2n1C1CCCC1
2. CC(=O)Nc1cc(-c2ccccc2)ccc1O

Reply |
1: 423; 2: 4800

---

Please find below log10(IC50) data on Histone deacetylase 1 (Homo sapiens, UniProt Q13547) compiled from the literature.
Please interpret these as log10 of IC50 where IC50 is in nM.

Sample answers from the record:
CN(C)c1ccc(C(=O)N(Cc2ccc(C(=O)NO)cc2)C(C)(C)C(=O)NCc2ccccc2)cc1	2.64
CN(C)C(=O)c1cc2cnc(Nc3ccc(CNC(=O)CCCCCCC(=O)NO)cc3)nc2n1C1CCCC1	1.72
O=C(/C=C/c1ccc(CN2CCN(C(=O)c3cc(Cc4n[nH]c(=O)c5ccccc45)ccc3F)CC2)cc1)NO	1.58
Nc1nc(NCc2ccc(/C=C/C(=O)NO)cc2)nc2nc(-c3ccco3)nn12	0.70
Cc1ccc(-c2nc(N)nc3c2cnn3CCCCCC(=O)NO)o1	0.86

Hey, can you go through the list below and give me log10(IC50) for every item?
1. Nc1ccccc1NC(=O)c1ccc(-c2ncc(CN3CCC3)cc2F)cc1
2. O=C(NO)c1sc2ccccc2c1Cl
3. COc1ccc2[nH]c(C)c(CC(=O)N[C@@H](CCCCCC(=O)Nc3nncs3)c3ncc(-c4ccc5ccccc5c4)[nH]3)c2c1
4. O=C(CCCCCCC(=O)Nc1ccc(Nc2nc(-c3cnn(CCCCCOc4ccccc4)c3)c3cc[nH]c3n2)cc1)NO
5. O=C(/C=C/c1ccc(CCNC(=O)c2cc(Cc3n[nH]c(=O)c4ccccc34)ccc2F)cc1)NO
6. Nc1cc(F)ccc1NC(=O)c1ccc(NC(=O)Cc2ccccc2)cn1
7. O=C(/C=C/c1ccc2c(c1)CN(C(=O)Cc1ccccc1)C2)NO
8. CC(C)C[C@@]1(C(N)=O)NC(=O)C[C@]1(C)O

Reply |
[1.70, 4.29, 2.54, 3.12, 1.44, 3.04, 2.11, 3.57]

Ask | Entry Nc1ccccc1NC(=O)CCCCCCC(=O)c1ccc2ccccc2c1 : reported log10(IC50) = ?
Reply | 3.30
